src = PubChem BioAssay

What composite Z-score was measured for each of the following?
Assay: small-molecule microarray binders of probe aXIP, primary screen, biochemical, NeuroSMM set, 635/667 nm fluorescence (AID 1119);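 also: probe is the protein aXip251-270 applied at 1 µg/mL to compound-printed slides; binding of probe to printed compounds measured as 667 nm fluorescence plus signal to noise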
Conditions: higher = more signal, called active from +8 up or from −8 down
Output: the number by itself.

In plain terms, O=C1C2C=CC(C(O)C3CCCCC3)N(Nc3ccc([N+](=O)[O-])cc3)C2C(=O)N1c1ccccc1 (configuration not stated) has a documented composite Z-score of -0.0746

composite Z-score for CCOC(=O)[C@H]1CC=C2CC1C(=O)N1CCC[C@@H]1[C@@H]2O[Si](C)(C)C(C)(C)C (some centres not stated) is 0.131

Kindly note the recorded composite Z-score for C=C/C=C/[C@H]1C(=C)CN([C@@H](Cc2ccccc2)C(=O)OC)[C@@H]1[C@H](O)Cc1ccccc1 , which is -0.624

Reported composite Z-score ( CN1C(=O)C2C=CC(C(O)C3=C[C@H]4C[C@@H](C3)C4(C)C)N(Nc3ccccc3)C2C1=O (some centres not stated) ) = -0.636

Reported composite Z-score for C=CCOC(=O)[C@@H]1[C@H]2C(=O)O[C@H](c3ccccc3)[C@H](c3ccccc3)N2[C@H](c2ccc(OCCOC(=O)[C@@H]3C[C@@H]4C(=O)N[C@@H](CCCCN(C)C)C(=O)N4[C@@H]3c3ccc(O)cc3)cc2)[C@@]12C(=O)Nc1ccc(I)cc12 was 0.412

composite Z-score reported for this molecule CC(=O)n1cc(C(O)C2C=CC3C(=O)N(C)C(=O)C3N2Nc2ccccc2)c2ccccc21 (configuration not stated) : -0.803

Noted for COCCCNC(=O)[C@@]1(Cc2ccccc2)N=C(c2ccc(OCCCO)cc2)O[C@H]1c1ccccc1 : its composite Z-score reads 1.14
